molecular target: IDO1 (Homo sapiens); assay: IDO1 Cellular Assay in HeLa Cells Stimulated with IFNγ; type: cell-based; conditions: IFNγ 100 ng/mL, 300 uM L-tryptophan, about 48 hours incubation, fluorescence readout, read-out: IDO1 HeLa Cell Assay, IC50
Sequence (P14902 whole entry): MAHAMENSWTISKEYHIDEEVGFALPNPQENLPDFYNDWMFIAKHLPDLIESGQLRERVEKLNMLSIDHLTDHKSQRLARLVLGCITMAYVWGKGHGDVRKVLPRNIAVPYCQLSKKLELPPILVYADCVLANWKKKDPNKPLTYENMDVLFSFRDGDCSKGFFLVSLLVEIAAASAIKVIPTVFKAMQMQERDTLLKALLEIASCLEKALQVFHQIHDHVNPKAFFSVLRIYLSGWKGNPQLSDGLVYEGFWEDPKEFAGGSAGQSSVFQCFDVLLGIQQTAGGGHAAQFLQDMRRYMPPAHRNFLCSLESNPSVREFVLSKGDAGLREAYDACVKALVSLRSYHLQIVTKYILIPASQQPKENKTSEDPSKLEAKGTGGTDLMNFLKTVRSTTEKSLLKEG
Can you tell me IC50 for the items I'm about to list?
Give bare numbers, in nM.

Field: example entries. Status: answers known.
[
  {
    "SMILES CODE": "N#Cc1cnc2[nH]c(C3(c4ccc(NC(=O)c5cccc(Cl)c5)nc4)CCC3)cc2c1",
    "IC50 (nM)": 633
  },
  {
    "SMILES CODE": "O=C(Nc1ccc(C2(c3nc4ccc(C(F)(F)F)cc4[nH]3)CCC2)cn1)c1cccc(Cl)c1",
    "IC50 (nM)": 2.42
  },
  {
    "SMILES CODE": "N#Cc1cccc(C(=O)Nc2ccc(C3(c4nc5cccc(C(=O)N6CCCC6)c5[nH]4)CCC3)cn2)c1",
    "IC50 (nM)": 2.18
  },
  {
    "SMILES CODE": "Cc1cc2nc(C3(c4ccc(NC(=O)c5cccc(Cl)c5)nc4)CCC3)[nH]c2cc1F",
    "IC50 (nM)": 3.47
  },
  {
    "SMILES CODE": "Cc1cc(C)c2[nH]c(C3(c4ccc(NC(=O)c5cccc(Cl)c5)nc4)CCC3)nc2c1",
    "IC50 (nM)": 4.69
  }
]

Record IC50 per entry; entries follow.
1. N#Cc1cccc(C(=O)Nc2ccc(C3(c4nc5cccc(C(=O)N6CCC(O)CC6)c5[nH]4)CCC3)cn2)c1
2. O=C(Nc1ccc(C2(c3nc4ccccc4[nH]3)CCC2)cn1)c1cccc(Cl)c1

A)
5.38
6.87
